Tested on: NCI-H1650
assay.text: relative viability (nuclei count vs DMSO), 5 days (fraction); higher = more cells survive
condition.details: first compound 0.01 µM
Please respond with reported relative viability for every item in the list.
Give bare numbers.

Worked set:
molecule: NC(=O)Nc1cc(-c2cccc(F)c2)sc1C(=O)N[C@H]1CCCNC1 [AZD7762] + O=C(CCCCCCC(=O)Nc1ccccc1)NO [Vorinostat] (partner 1 µM)
relative viability: 0.622

molecule: NC(=O)Nc1cc(-c2cccc(F)c2)sc1C(=O)N[C@H]1CCCNC1 [AZD7762] + O=C(c1cc(Cc2n[nH]c(=O)c3ccccc23)ccc1F)N1CCN(C(=O)C2CC2)CC1 [Olaparib] (partner 8 µM)
relative viability: 0.787

molecule: NC(=O)Nc1cc(-c2cccc(F)c2)sc1C(=O)N[C@H]1CCCNC1 [AZD7762] + N=C(N)NC(=N)NCCc1ccccc1 [Phenformin] (partner 250 µM)
relative viability: 0.51

Read the next record carefully.
Request: Given the molecule NC(=O)Nc1cc(-c2cccc(F)c2)sc1C(=O)N[C@H]1CCCNC1 [AZD7762] + Nc1nc2[nH]cc(CCc3ccc(C(=O)N[C@@H](CCC(=O)O)C(=O)O)cc3)c2c(=O)[nH]1 [Pemetrexed] (partner 0.2 µM) , what is its reported relative viability?
Response: 0.333

* * *

Test system: A549
assay.text: relative viability (nuclei count vs DMSO), 5 days (fraction); higher = more cells survive
condition.details: first compound 0.253 µM
assay.metric: relative viability
Answers are plain numbers.

compound: C=C1C(=O)O[C@@H](CCCCCCCC)[C@@H]1C(=O)O [C-75] + CS(=O)(=O)N1CCN(Cc2cc3nc(-c4cccc5[nH]ncc45)nc(N4CCOCC4)c3s2)CC1 [Pictilisib] (partner 1 µM)
assay.metric: relative viability
readout.number: 0.571
--
compound: Oc1nc(-c2ccc(C(F)(F)F)cc2)nc2c1CSCC2 [XAV939] + N=C(N)NC(=N)NCCc1ccccc1 [Phenformin] (partner 250 µM)
assay.metric: relative viability
readout.number: 0.218
--
compound: C=C1C(=O)O[C@@H](CCCCCCCC)[C@@H]1C(=O)O [C-75] + Nc1ncn([C@H]2C[C@H](O)[C@@H](CO)O2)c(=O)n1 [Decitabine] (partner 2 µM)
assay.metric: relative viability
readout.number: 0.255
--
compound: Oc1nc(-c2ccc(C(F)(F)F)cc2)nc2c1CSCC2 [XAV939] + CS(=O)(=O)N1CCN(Cc2cc3nc(-c4cccc5[nH]ncc45)nc(N4CCOCC4)c3s2)CC1 [Pictilisib] (partner 1 µM)
assay.metric: relative viability
readout.number: 0.491
--
compound: Oc1nc(-c2ccc(C(F)(F)F)cc2)nc2c1CSCC2 [XAV939] + CS(=O)(=O)CCNCc1ccc(-c2ccc3ncnc(Nc4ccc(OCc5cccc(F)c5)c(Cl)c4)c3c2)o1 [Lapatinib] (partner 2 µM)
assay.metric: relative viability
readout.number: 0.985

Read the next record carefully.
Request: Given the compound Oc1nc(-c2ccc(C(F)(F)F)cc2)nc2c1CSCC2 [XAV939] + O=C(c1cc(Cc2n[nH]c(=O)c3ccccc23)ccc1F)N1CCN(C(=O)C2CC2)CC1 [Olaparib] (partner 8 µM) , what is its reported relative viability?
Response: 0.265

* * *

System: NCI-H1755
assay.text: relative viability (nuclei count vs DMSO), 5 days (fraction); higher = more cells survive
condition.details: first compound 0.8 µM
Please respond with reported relative viability for every item in the list.

molecule: C=C1C(=O)O[C@@H](CCCCCCCC)[C@@H]1C(=O)O [C-75] + CC1(C)CCC(c2ccc(Cl)cc2)=C(CN2CCN(c3ccc(C(=O)NS(=O)(=O)c4ccc(N[C@H](CCN5CCOCC5)CSc5ccccc5)c(S(=O)(=O)C(F)(F)F)c4)cc3)CC2)C1 [Navitoclax] (partner 0.5 µM)
system: NCI-H1755
assay.metric: relative viability
result: 1.02

Read the next record carefully.
Request: Given the molecule Oc1nc(-c2ccc(C(F)(F)F)cc2)nc2c1CSCC2 [XAV939] + O=C(CCCCCCC(=O)Nc1ccccc1)NO [Vorinostat] (partner 1 µM) , what is its reported relative viability?
Response: 0.74

* * *

Test system: NCI-H1734
assay.text: relative viability (nuclei count vs DMSO), 5 days (fraction); higher = more cells survive
condition.details: first compound 1 µM
Field: label. Allowed values: MET (relative viability < 0.5) or NOT MET (relative viability >= 0.5).

As a guide, the following entries are already answered.
molecule: NC(=O)Nc1cc(-c2cccc(F)c2)sc1C(=O)N[C@H]1CCCNC1 [AZD7762] + Cc1nc(NC(=O)N2CCC[C@H]2C(N)=O)sc1-c1ccnc(C(C)(C)C(F)(F)F)c1 [Alpelisib] (partner 2 µM)
qualitative.label: NOT MET
--
molecule: NC(=O)Nc1cc(-c2cccc(F)c2)sc1C(=O)N[C@H]1CCCNC1 [AZD7762] + CC(=O)c1c(C)c2cnc(Nc3ccc(N4CCNCC4)cn3)nc2n(C2CCCC2)c1=O [Palbociclib] (partner 0.5 µM)
qualitative.label: MET
--
molecule: NC(=O)Nc1cc(-c2cccc(F)c2)sc1C(=O)N[C@H]1CCCNC1 [AZD7762] + C[C@@H](Oc1cc(-c2cnn(C3CCNCC3)c2)cnc1N)c1c(Cl)ccc(F)c1Cl [Crizotinib] (partner 1 µM)
qualitative.label: MET
--
molecule: NC(=O)Nc1cc(-c2cccc(F)c2)sc1C(=O)N[C@H]1CCCNC1 [AZD7762] + CC(=O)Nc1cccc(-n2c(=O)n(C3CC3)c(=O)c3c(Nc4ccc(I)cc4F)n(C)c(=O)c(C)c32)c1 [Trametinib] (partner 0.02 µM)
qualitative.label: NOT MET

We next turn to a different molecule, shown below.
Request: Strictly below 0.5 in relative viability? NC(=O)Nc1cc(-c2cccc(F)c2)sc1C(=O)N[C@H]1CCCNC1 [AZD7762] + CCNC(=O)c1noc(-c2cc(C(C)C)c(O)cc2O)c1-c1ccc(CN2CCOCC2)cc1 [Luminespib] (partner 0.01 µM)
Response: MET

* * *

System: PC-14
assay.text: relative viability (nuclei count vs DMSO), 5 days (fraction); higher = more cells survive
condition.details: first compound 0.08 µM
Please respond with reported relative viability for every item in the list.
Give bare numbers.

compound: C=C1C(=O)O[C@@H](CCCCCCCC)[C@@H]1C(=O)O [C-75] + CC1(C)CCC(c2ccc(Cl)cc2)=C(CN2CCN(c3ccc(C(=O)NS(=O)(=O)c4ccc(N[C@H](CCN5CCOCC5)CSc5ccccc5)c(S(=O)(=O)C(F)(F)F)c4)cc3)CC2)C1 [Navitoclax] (partner 0.5 µM)
relative viability: 1.01

Request: Given the compound C=C1C(=O)O[C@@H](CCCCCCCC)[C@@H]1C(=O)O [C-75] + N=C(N)NC(=N)NCCc1ccccc1 [Phenformin] (partner 250 µM) , what is its reported relative viability?
Response: 0.469

* * *

Test system: HARA
assay.text: relative viability (nuclei count vs DMSO), 5 days (fraction); higher = more cells survive
condition.details: first compound 0.03162 µM
Please respond with reported relative viability for every item in the list.
Answers are plain numbers.

Worked set:
molecule: NC(=O)Nc1cc(-c2cccc(F)c2)sc1C(=O)N[C@H]1CCCNC1 [AZD7762] + CS(=O)(=O)N1CCN(Cc2cc3nc(-c4cccc5[nH]ncc45)nc(N4CCOCC4)c3s2)CC1 [Pictilisib] (partner 1 µM)
readout.number: 0.435

molecule: NC(=O)Nc1cc(-c2cccc(F)c2)sc1C(=O)N[C@H]1CCCNC1 [AZD7762] + O=C(c1cc(Cc2n[nH]c(=O)c3ccccc23)ccc1F)N1CCN(C(=O)C2CC2)CC1 [Olaparib] (partner 8 µM)
readout.number: 0.759

molecule: NC(=O)Nc1cc(-c2cccc(F)c2)sc1C(=O)N[C@H]1CCCNC1 [AZD7762] + CC(=O)Nc1cccc(-n2c(=O)n(C3CC3)c(=O)c3c(Nc4ccc(I)cc4F)n(C)c(=O)c(C)c32)c1 [Trametinib] (partner 0.02 µM)
readout.number: 0.629

molecule: NC(=O)Nc1cc(-c2cccc(F)c2)sc1C(=O)N[C@H]1CCCNC1 [AZD7762] + Cc1nc(Nc2ncc(C(=O)Nc3c(C)cccc3Cl)s2)cc(N2CCN(CCO)CC2)n1 [Dasatinib] (partner 0.075 µM)
readout.number: 0.304

molecule: NC(=O)Nc1cc(-c2cccc(F)c2)sc1C(=O)N[C@H]1CCCNC1 [AZD7762] + N=C(N)NC(=N)NCCc1ccccc1 [Phenformin] (partner 250 µM)
readout.number: 0.509

molecule: NC(=O)Nc1cc(-c2cccc(F)c2)sc1C(=O)N[C@H]1CCCNC1 [AZD7762] + CC(C)C[C@H](NC(=O)[C@H](Cc1ccccc1)NC(=O)c1cnccn1)B(O)O [Bortezomib] (partner 0.002 µM)
readout.number: 1.11

Read the next record carefully.
Request: Quick check: relative viability on HARA, item NC(=O)Nc1cc(-c2cccc(F)c2)sc1C(=O)N[C@H]1CCCNC1 [AZD7762] + C[C@]1(O)C[C@@H](c2nc(-c3ccc4ccc(-c5ccccc5)nc4c3)c3c(N)nccn32)C1 [Linsitinib] (partner 1 µM) ?
Response: 0.934

Values from the supplement of paper PMC10307832
